B1: VH:VL chains; a variant is named by its letters at X, in order (parent)
chain 1: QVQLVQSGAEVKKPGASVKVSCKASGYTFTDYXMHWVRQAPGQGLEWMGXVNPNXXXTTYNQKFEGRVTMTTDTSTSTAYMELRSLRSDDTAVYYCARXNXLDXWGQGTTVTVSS
chain 2: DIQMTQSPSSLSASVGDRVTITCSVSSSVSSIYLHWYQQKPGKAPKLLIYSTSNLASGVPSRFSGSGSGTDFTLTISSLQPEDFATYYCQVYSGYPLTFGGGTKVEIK

Variants of: B1
Test: yeast display scFab, FACS + sequencing

variant name | non-specific binding call
VEGRGDAV | no binding
ATRGADAV | no binding
VEGGGFAY | no binding
VTTKGDVF | no binding
DTKAAAVV | no binding
FRGGSVGY | binds
VTRGADAA | no binding
VEGEDAGA | no binding
SKGRSDVS | no binding
DTGTGDVF | no binding
YAKGDDAS | no binding
YRRRGSSA | binds
AKERGDGV | no binding
AEGRGAVY | no binding
YKRRSASA | binds
FKGRGSSS | binds
FAAGGAWA | binds
YRGKGVGD | binds
YTTGGDGA | no binding
DATGGDVD | no binding
YRGRGVLF | binds
FKGKGAAV | binds
YRRGSAGS | binds
FRGEGSGV | binds
YKGRGYVA | binds
SKAKGAWD | binds
VKGRGSLF | binds
DRAGDAGY | no binding
YKGRGDWY | binds
YTGTSDLD | no binding
YRAKSAVF | binds
FREGASWD | binds
VRGGGAAV | no binding
YRRRSAGA | binds
VTTKSYLV | no binding
VAGGDYLV | no binding
VKGTGFLD | binds
YTGRAALA | no binding
YKRGASVA | binds
YRGKAAGV | binds
YKGRDASD | binds
DAARGDVV | no binding
FKTESAAV | binds
FRTRDSLD | binds
VEKEGAGD | no binding
YKGRGFSD | binds
DKGRSVGV | no binding
AREKGSAA | binds
STRGADAV | no binding
FRGKGAAV | binds
VTTRDDSD | no binding
DTGGGAWD | no binding
AGGGNDVY | no binding
DAEATSWV | no binding
YEGAASWF | no binding
VRARGSSF | binds
STAESDVA | no binding
VKGRGSAA | binds
AETKGSLA | no binding
YRRRGFVA | binds
VKGRADWD | no binding
YRGRGFVY | binds
YEEGTDWY | no binding
VTGTSDVA | no binding
YEGGGSSA | no binding
YRGRSASV | binds
YRAGGVGD | binds
YRKKTDWS | binds
DAGGAAAA | no binding
